Data credit: paper PMC3997483

Assay: Plasma and brain pharmacokinetics (BBB penetration) after PO in mice
Format: in vivo
Conditions: ICR, mouse; brain, mice PO 10 mg/kg
Measure: Cmax

Cmax for COc1ccc2cc(C=Cc3ccc(N(C)C)cc3)oc2c1 is 6370 ng/g
